What follows is a collection of AC50 values obtained with Sodium-dependent noradrenaline transporter (Homo sapiens, UniProt P23975).
Sequence (P23975 whole entry): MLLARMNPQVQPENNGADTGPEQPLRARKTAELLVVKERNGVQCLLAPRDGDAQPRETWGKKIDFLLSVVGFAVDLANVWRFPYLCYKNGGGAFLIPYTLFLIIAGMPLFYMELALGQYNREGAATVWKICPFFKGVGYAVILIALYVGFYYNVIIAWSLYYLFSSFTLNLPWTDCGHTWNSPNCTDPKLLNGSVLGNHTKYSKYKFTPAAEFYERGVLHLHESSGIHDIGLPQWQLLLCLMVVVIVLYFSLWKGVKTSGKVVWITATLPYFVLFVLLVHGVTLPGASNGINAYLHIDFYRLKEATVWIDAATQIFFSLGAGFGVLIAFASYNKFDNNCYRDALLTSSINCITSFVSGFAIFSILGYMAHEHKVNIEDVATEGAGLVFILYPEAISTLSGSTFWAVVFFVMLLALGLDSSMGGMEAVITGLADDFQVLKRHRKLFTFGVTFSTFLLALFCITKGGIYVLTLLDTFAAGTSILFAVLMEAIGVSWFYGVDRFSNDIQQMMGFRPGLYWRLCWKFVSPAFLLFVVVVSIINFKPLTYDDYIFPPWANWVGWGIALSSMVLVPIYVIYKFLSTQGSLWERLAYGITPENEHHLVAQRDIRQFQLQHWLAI
assay_metric: AC50

* CCCN(CCC)C(=O)Cc1c(-c2ccc(Cl)cc2)nc2ccc(Cl)cn12 | > 30 µM
* OC[C@H]1O[C@@](CO)(O[C@H]2O[C@H](CO)[C@@H](O)[C@H](O)[C@H]2O)[C@@H](O)[C@@H]1O | > 30 µM
* CN1CCN(C2=Nc3ccccc3Oc3ccc(Cl)cc32)CC1 | 0.482 µM
* O=C(O)CO | > 30 µM
* CC(C)OC(=O)CCC/C=C\C[C@@H]1[C@@H](/C=C/C(F)(F)COc2ccccc2)[C@H](O)C[C@@H]1O | > 30 µM

---

# study_target: Cannabinoid receptor 1 (Homo sapiens, UniProt P21554); further: assay procedure not described here
# Sequence (P21554 whole entry): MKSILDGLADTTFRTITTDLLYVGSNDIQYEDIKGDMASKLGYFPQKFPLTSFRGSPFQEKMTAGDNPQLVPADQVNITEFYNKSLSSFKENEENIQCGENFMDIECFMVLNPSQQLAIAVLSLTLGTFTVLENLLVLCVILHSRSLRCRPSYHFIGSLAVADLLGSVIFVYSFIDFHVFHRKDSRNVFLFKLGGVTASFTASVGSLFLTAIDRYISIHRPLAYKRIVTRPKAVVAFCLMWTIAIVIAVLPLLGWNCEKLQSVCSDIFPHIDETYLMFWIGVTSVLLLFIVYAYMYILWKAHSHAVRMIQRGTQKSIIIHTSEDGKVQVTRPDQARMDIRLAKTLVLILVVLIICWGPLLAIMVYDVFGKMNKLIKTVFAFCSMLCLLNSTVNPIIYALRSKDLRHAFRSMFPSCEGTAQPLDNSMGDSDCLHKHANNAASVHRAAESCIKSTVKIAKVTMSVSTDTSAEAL
Measured AC50 of individual entries
assay_metric: AC50

- CC(C(=O)O)c1ccc2c(c1)[nH]c1ccc(Cl)cc12 (centres undefined): > 10 µM
- CCCC(CCC)C(N)=O [VALPROMIDE]: > 10 µM
- CCC(=O)O[C@]1(C(=O)SCF)[C@H](C)C[C@H]2[C@@H]3C[C@H](F)C4=CC(=O)C=C[C@]4(C)[C@@]3(F)[C@@H](O)C[C@@]21C [FLUTICASONE PROPIONATE]: > 30 µM
- OC1(c2ccc(Cl)cc2)c2ccccc2C2=NCCN21 (centres undefined): > 10 µM
- CC(CCc1ccc(O)cc1)NCCc1ccc(O)c(O)c1 (centres undefined): > 30 µM
- CCC1(c2ccccc2)CCC(=O)NC1=O (centres undefined) [GLUTETHIMIDE]: > 10 µM
- O=C1CN=C(c2ccccc2)c2cc([N+](=O)[O-])ccc2N1: > 10 µM
- CNC1=Nc2ccc(Cl)cc2C(c2ccccc2)=[N+]([O-])C1 [CHLORDIAZEPOXIDE]: > 10 µM
- COc1cc2c(cc1OC)C(CCc1ccc(Cl)cc1)N(C)CC2 (centres undefined): > 10 µM

---

# study_target: Equilibrative nucleoside transporter 1 (Homo sapiens, UniProt Q99808); further: assay procedure not described here
# Sequence (Q99808 whole entry): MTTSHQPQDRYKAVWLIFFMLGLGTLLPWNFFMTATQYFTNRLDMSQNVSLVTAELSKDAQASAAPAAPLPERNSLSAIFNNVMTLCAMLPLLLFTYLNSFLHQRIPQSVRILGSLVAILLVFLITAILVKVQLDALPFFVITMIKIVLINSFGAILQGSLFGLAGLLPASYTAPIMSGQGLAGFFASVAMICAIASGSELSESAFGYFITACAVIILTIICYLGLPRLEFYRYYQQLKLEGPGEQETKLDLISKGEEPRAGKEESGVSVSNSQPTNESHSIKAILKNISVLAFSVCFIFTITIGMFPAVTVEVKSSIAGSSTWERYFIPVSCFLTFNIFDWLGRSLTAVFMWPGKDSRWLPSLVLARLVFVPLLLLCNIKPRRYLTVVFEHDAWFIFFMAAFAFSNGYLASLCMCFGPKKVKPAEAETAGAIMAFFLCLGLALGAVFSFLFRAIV
Measured AC50 of individual entries
assay_metric: AC50

- CC(=O)SC[C@@H](C)C(=O)N1CCC[C@H]1C(=O)N[C@@H](Cc1ccccc1)C(=O)O: > 30 µM
- CCC[C@H](NC(=O)[C@@H]1[C@H]2CCC[C@H]2CN1C(=O)[C@@H](NC(=O)[C@@H](NC(=O)c1cnccn1)C1CCCCC1)C(C)(C)C)C(=O)C(=O)NC1CC1: > 30 µM
- CO[C@H]1/C=C/O[C@@]2(C)Oc3c(C)c(O)c4c(O)c(c(/C=N/N5CCN(C)CC5)c(O)c4c3C2=O)NC(=O)/C(C)=C\C=C\[C@H](C)[C@H](O)[C@@H](C)[C@@H](O)[C@@H](C)[C@H](OC(C)=O)[C@@H]1C: 12.4 µM

---

Target protein (sequence): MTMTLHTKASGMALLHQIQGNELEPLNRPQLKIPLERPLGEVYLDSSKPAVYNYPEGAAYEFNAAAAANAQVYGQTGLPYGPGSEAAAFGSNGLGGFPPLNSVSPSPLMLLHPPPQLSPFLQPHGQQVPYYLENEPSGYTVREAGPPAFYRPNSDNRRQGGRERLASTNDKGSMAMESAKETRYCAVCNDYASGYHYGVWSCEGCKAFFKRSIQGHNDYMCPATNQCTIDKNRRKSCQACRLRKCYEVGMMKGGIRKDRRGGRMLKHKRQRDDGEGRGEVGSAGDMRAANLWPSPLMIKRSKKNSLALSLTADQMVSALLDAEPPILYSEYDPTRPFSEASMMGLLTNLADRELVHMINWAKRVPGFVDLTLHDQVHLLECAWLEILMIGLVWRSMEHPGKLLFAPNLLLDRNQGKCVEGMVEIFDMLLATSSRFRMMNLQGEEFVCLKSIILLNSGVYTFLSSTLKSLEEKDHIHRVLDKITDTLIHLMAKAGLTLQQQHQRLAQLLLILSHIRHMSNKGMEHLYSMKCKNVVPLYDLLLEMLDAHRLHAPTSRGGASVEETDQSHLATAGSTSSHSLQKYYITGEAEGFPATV
assay_metric: AC50

- CC[C@H]1OC(=O)[C@H](C)C(=O)[C@H](C)[C@@H](O[C@@H]2O[C@H](C)C[C@H](N(C)C)[C@H]2O)[C@](C)(OC)C[C@@H](C)C(=O)[C@H](C)[C@H]2N(CCCCn3cnc(-c4cccnc4)c3)C(=O)O[C@]12C [TELITHROMYCIN]: > 30 µM
- OC[C@H]1O[C@@H](c2ccc(Cl)c(Cc3ccc(O[C@H]4CCOC4)cc3)c2)[C@H](O)[C@@H](O)[C@@H]1O [EMPAGLIFLOZIN]: > 30 µM
- OC[C@H]1O[C@@H](c2ccc(F)c(Cc3cc4ccccc4s3)c2)[C@H](O)[C@@H](O)[C@@H]1O [IPRAGLIFLOZIN]: > 30 µM

---

# study_target: Progesterone receptor (Homo sapiens, UniProt P06401); further: assay procedure not described here
# Sequence (P06401 whole entry): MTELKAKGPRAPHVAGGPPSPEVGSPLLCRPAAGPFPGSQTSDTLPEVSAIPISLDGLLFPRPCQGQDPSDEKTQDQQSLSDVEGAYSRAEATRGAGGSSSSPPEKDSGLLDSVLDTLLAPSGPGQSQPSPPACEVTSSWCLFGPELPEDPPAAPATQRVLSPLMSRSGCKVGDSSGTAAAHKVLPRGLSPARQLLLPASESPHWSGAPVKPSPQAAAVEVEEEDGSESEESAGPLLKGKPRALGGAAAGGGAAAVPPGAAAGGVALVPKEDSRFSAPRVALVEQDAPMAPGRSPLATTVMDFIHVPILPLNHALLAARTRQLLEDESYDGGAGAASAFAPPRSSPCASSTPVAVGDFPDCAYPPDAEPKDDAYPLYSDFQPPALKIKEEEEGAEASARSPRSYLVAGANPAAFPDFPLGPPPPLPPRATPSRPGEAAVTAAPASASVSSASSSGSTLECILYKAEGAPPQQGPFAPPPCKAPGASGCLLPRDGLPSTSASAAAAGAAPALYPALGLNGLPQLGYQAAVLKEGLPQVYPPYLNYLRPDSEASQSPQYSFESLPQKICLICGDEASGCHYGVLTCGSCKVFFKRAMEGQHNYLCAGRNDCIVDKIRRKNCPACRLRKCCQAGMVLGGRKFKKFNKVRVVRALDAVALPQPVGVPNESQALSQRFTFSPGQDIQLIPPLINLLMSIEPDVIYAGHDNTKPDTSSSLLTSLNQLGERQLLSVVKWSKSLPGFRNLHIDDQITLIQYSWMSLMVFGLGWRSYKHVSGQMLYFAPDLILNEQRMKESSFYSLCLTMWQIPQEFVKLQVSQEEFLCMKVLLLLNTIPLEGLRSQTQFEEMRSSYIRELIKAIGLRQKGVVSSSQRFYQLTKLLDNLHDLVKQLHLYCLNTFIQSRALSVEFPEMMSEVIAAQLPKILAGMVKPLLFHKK
# Assay type: functional
assay_metric: AC50

- CCOC(=O)c1cncn1[C@H](C)c1ccccc1 [ETOMIDATE]: > 10 µM
- C=C[C@@]1(C)CC(=O)[C@]2(O)[C@@]3(C)[C@@H](O)CCC(C)(C)[C@@H]3[C@H](O)[C@H](OC(C)=O)[C@@]2(C)O1 [COLFORSIN]: > 30 µM
- CC(C(=O)O)c1ccc(CC2CCCC2=O)cc1 (stereo unspecified) [LOXOPROFEN]: > 30 µM
- CC(=O)[C@@]1(O)CC[C@H]2[C@@H]3C=C(Cl)C4=CC(=O)[C@@H]5C[C@@H]5[C@]4(C)[C@H]3CC[C@@]21C [CYPROTERONE]: 0.003 µM
- CN1C[C@H](C(=O)N[C@]2(C)O[C@@]3(O)[C@@H]4CCCN4C(=O)[C@H](Cc4ccccc4)N3C2=O)C=C2c3cccc4[nH]cc(c34)C[C@H]21 [ERGOTAMINE]: > 30 µM
- CC(C)[C@H](N)C(=O)OCC(CO)OCn1cnc2c(=O)nc(N)[nH]c21 (stereo partly specified) [VALGANCICLOVIR]: > 30 µM
- CCCCCCCCCCCCCCCCCCCCCC(=O)Nc1ccn([C@@H]2O[C@H](CO)[C@@H](O)[C@@H]2O)c(=O)n1 [ENOCITABINE]: > 30 µM
- C=CCNc1nc(NCC=C)nc(N2CCN(C(c3ccc(F)cc3)c3ccc(F)cc3)CC2)n1 [ALMITRINE]: > 30 µM
- CC(C)COCC(CN(Cc1ccccc1)c1ccccc1)N1CCCC1 (stereo unspecified) [BEPRIDIL]: > 30 µM
- OC1(c2ccc(Cl)cc2)c2ccccc2C2=NCCN21 (stereo unspecified) [MAZINDOL]: > 30 µM
- CCCN[C@H]1CCc2nc(N)sc2C1 [PRAMIPEXOLE]: > 30 µM
- CCC(C)C(CC)C(N)=O (stereo unspecified) [VALNOCTAMIDE]: > 30 µM
- OC[C@H]1O[C@@](CO)(O[C@H]2O[C@H](CO)[C@@H](O)[C@H](O)[C@H]2O)[C@@H](O)[C@@H]1O [SUCROSE]: > 30 µM
- C[C@]12CC[C@@H]3c4ccc(O)cc4C[C@@H](CCCCCCCCC[S+]([O-])CCCC(F)(F)C(F)(F)F)[C@H]3[C@@H]1CC[C@@H]2O (stereo partly specified) [FULVESTRANT]: > 30 µM
- CCC(=O)O[C@H]1CC[C@H]2[C@@H]3CCC4=CC(=O)CC[C@]4(C)[C@H]3CC[C@]12C [TESTOSTERONE PROPIONATE]: 0.328 µM
- O=C1CN=C(c2ccccc2)c2cc([N+](=O)[O-])ccc2N1 [NITRAZEPAM]: > 10 µM

---

# study_target: Receptor tyrosine-protein kinase erbB-2 (Homo sapiens); further: assay procedure not described here
# Sequence (P04626 whole entry): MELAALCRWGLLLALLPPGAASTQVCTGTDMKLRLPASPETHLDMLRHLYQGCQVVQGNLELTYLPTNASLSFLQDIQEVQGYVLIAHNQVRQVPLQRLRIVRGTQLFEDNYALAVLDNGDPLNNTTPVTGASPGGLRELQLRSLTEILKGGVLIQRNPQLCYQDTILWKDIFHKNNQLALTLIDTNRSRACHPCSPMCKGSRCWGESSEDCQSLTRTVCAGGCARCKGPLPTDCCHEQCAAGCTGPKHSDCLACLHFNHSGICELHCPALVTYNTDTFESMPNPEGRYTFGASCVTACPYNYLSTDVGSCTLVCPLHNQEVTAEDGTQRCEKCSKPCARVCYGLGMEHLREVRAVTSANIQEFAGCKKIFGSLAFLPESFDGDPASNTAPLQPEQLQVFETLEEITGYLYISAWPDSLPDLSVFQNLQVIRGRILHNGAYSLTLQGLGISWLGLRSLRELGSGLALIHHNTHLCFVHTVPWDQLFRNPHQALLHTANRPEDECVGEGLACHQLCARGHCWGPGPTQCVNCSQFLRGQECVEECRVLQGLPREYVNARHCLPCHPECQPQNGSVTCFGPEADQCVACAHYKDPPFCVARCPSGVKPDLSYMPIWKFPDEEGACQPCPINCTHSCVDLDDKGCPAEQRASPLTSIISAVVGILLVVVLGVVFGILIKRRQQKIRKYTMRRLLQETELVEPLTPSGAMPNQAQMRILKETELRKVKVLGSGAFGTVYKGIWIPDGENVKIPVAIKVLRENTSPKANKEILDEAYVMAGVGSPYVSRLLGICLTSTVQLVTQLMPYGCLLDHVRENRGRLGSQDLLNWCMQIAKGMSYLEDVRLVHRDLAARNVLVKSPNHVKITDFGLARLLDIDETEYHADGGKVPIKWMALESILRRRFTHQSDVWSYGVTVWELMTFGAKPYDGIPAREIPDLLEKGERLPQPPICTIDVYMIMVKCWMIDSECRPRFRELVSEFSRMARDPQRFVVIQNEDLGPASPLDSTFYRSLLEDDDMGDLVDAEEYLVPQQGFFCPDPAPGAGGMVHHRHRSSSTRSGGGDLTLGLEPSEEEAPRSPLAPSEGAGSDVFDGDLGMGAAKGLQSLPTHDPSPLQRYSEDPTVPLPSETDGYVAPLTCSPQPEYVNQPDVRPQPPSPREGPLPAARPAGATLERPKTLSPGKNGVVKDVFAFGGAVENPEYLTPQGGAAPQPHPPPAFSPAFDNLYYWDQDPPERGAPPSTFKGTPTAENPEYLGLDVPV
# Type: functional
assay_metric: AC50

• CCN1CCN(Cc2ccc(Nc3ncc(F)c(-c4cc(F)c5nc(C)n(C(C)C)c5c4)n3)nc2)CC1 = > 30 µM
• COc1cc2nccc(Oc3ccc(NC(=O)C4(C(=O)Nc5ccc(F)cc5)CC4)cc3)c2cc1OC [CABOZANTINIB] = 6.2 µM
• C=CC[C@@H]1/C=C(\C)C[C@H](C)C[C@H](OC)[C@H]2O[C@@](O)(C(=O)C(=O)N3CCCC[C@H]3C(=O)O[C@H](/C(C)=C/[C@@H]3CC[C@@H](O)[C@H](OC)C3)[C@H](C)[C@@H](O)CC1=O)[C@H](C)C[C@@H]2OC [TACROLIMUS ANHYDROUS] = > 30 µM
• C[C@H](CCC(=O)O)[C@H]1CC[C@H]2[C@@H]3[C@@H](O)C[C@@H]4C[C@H](O)CC[C@]4(C)[C@H]3CC[C@]12C = > 30 µM

---

What follows is a collection of AC50 values obtained with UniProt P07550.
Sequence (P07550 whole entry): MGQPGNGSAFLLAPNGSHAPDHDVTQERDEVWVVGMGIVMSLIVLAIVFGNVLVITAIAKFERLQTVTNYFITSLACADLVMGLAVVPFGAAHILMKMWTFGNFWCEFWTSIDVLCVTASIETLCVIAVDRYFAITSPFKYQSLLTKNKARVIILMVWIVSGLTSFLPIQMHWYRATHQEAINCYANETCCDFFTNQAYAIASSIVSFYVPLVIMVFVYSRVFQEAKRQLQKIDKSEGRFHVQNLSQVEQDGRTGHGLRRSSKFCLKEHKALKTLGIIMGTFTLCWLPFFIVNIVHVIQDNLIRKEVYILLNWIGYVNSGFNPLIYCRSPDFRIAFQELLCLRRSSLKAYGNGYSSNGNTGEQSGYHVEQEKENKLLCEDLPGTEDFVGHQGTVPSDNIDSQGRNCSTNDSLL
assay_metric: AC50

* CCOC(=O)O[C@]1(C(=O)OCCl)CC[C@H]2[C@@H]3CCC4=CC(=O)C=C[C@]4(C)[C@H]3[C@@H](O)C[C@@]21C [LOTEPREDNOL ETABONATE] | > 30 µM
* Cc1ncc2n1-c1ccc(Cl)cc1C(c1ccccc1F)=NC2 [MIDAZOLAM] | > 10 µM
* CN1CCC(=C2c3ccccc3CCc3cccnc32)CC1 [AZATADINE] | > 10 µM
* C=C[C@H]1C[N@@]2CC[C@H]1C[C@@H]2[C@@H](O)c1ccnc2ccc(OC)cc12 [QUINIDINE] | > 10 µM
